system: 379773-124-R-J2-PDC spheroid viability; assay: Anticancer human tumor 379773-124-R-J2-PDC patient-derived endometrial carcinoma cell line growth inhibition [POLQ]; conditions: second compound 3.16 µM; first compound 0.000316 µM; hits give low values; spheroids with HUVEC and MSC;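 further: spheroids exposed to drugs for seven days before readout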
Binarize viability, T/C at 90%; below is Yes, at or above is No.

INSERT INTO assay_data (compound, tgt, assigned_label) VALUES
  ('Cn1ncnc1[C@H]1c2n[nH]c(=O)c3cc(F)cc(c23)N[C@@H]1c1ccc(F)cc1 + Nc1ccc(C#CCN(C(=O)Cc2ncc(C(F)(F)F)cc2C(F)(F)F)c2ccc(F)cc2)nn1', '379773-124-R-J2-PDC spheroid viability', 'No'),
  ('CC[C@@]1(O)C(=O)OCc2c1cc1n(c2=O)Cc2cc3c(CN(C)C)c(O)ccc3nc2-1 + COC1C(OC(N)=O)C(O)C(Oc2ccc3c(O)c(NC(=O)c4ccc(O)c(CC=C(C)C)c4)c(=O)oc3c2C)OC1(C)C', '379773-124-R-J2-PDC spheroid viability', 'Yes'),
  ('CC[C@@]1(O)C(=O)OCc2c1cc1n(c2=O)Cc2cc3c(CN(C)C)c(O)ccc3nc2-1 + Nc1ccc(C#CCN(C(=O)Cc2ncc(C(F)(F)F)cc2C(F)(F)F)c2ccc(F)cc2)nn1', '379773-124-R-J2-PDC spheroid viability', 'No'),
  ('CC[C@@]1(O)C(=O)OCc2c1cc1n(c2=O)Cc2cc3c(CN(C)C)c(O)ccc3nc2-1 + Cc1cccc(N(C)C(=O)C2C(O)CCN2c2nc(C)cc(C(F)(F)F)c2C#N)c1', '379773-124-R-J2-PDC spheroid viability', 'Yes'),
  ('Cn1ncnc1[C@H]1c2n[nH]c(=O)c3cc(F)cc(c23)N[C@@H]1c1ccc(F)cc1 + COC1C(OC(N)=O)C(O)C(Oc2ccc3c(O)c(NC(=O)c4ccc(O)c(CC=C(C)C)c4)c(=O)oc3c2C)OC1(C)C', '379773-124-R-J2-PDC spheroid viability', 'Yes'),
  ('Cn1ncnc1[C@H]1c2n[nH]c(=O)c3cc(F)cc(c23)N[C@@H]1c1ccc(F)cc1 + Cc1cccc(N(C)C(=O)C2C(O)CCN2c2nc(C)cc(C(F)(F)F)c2C#N)c1', '379773-124-R-J2-PDC spheroid viability', 'Yes');
